Source listed as the Human Domainome abundance scans (Beltran et al. 2025).

B1: MEF2-activating motif and SAP domain-containing transcriptional regulator, residues 170 to 204; numbered along this chain, Q6ZN01 (parent)
chain: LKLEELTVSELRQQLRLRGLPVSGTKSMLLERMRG

- Variants of: B1
- Experiment description: abundance fitness (aPCA) (normalised: wild type 0, dead -1); higher = more abundant; growth selection in yeast, the domain comes from the species named
- Condition: Homo sapiens
Measured quantity: abundance fitness
Note: the reply should be a number with no unit written.

-- ask Provide abundance fitness value for the following variant: L6D
-- reply -0.356

-- ask # return recorded abundance fitness for entry Q13F
-- reply -0.101

-- ask Output measured abundance fitness for this item: L3D
-- reply -0.098

-- ask Quick one: give measured abundance fitness for L15K
-- reply -0.361

-- ask Give recorded abundance fitness. R18E
-- reply -0.14

-- ask Return reported abundance fitness. Input variant: R18S
-- reply -0.206

-- ask Given L6Q , respond with its abundance fitness.
-- reply -0.236

-- ask Check the records and state abundance fitness for M28I
-- reply -0.015

-- ask Query abundance fitness for S23A
-- reply -0.103

-- ask Supply recorded abundance fitness for S23Y here.
-- reply -0.106

-- ask Supply abundance fitness value. Item: V8A
-- reply 0.142

-- ask Please report abundance fitness for the following variant: R32K
-- reply -0.545

-- ask Please report the measured abundance fitness for R16C
-- reply -0.107

-- ask Find the measured abundance fitness of K2P and report it.
-- reply -0.572

-- ask Look up and state reported abundance fitness for S9Y
-- reply -0.345

-- ask Tell me its abundance fitness given L30R as the entry.
-- reply -0.283

-- ask // Input: T7E . Output its abundance fitness only.
-- reply -0.347

-- ask Read the entry L1K and write its reported abundance fitness.
-- reply -0.05

-- ask Given S27G , respond with its abundance fitness.
-- reply -0.108

-- ask Identify measured abundance fitness associated with S23L
-- reply -0.349

-- ask Report abundance fitness for L30I
-- reply 0.394

-- ask Determine from records and report abundance fitness for L20W
-- reply -0.626

-- ask Give the reported value of abundance fitness for this record: S9E
-- reply 0.181

-- ask Report abundance fitness, nothing else, for this variant: S23P
-- reply -0.838

-- ask Please give the documented abundance fitness of K2D
-- reply -0.496

-- ask Respond only with abundance fitness recorded for P21W
-- reply -0.854

-- ask Return reported abundance fitness. Input variant: V8C
-- reply -0.486

-- ask Tell me its abundance fitness given E10Q as the entry.
-- reply -0.216

-- ask Please give the documented abundance fitness of E31T
-- reply -0.348

-- ask For L15A , write its abundance fitness.
-- reply 0.11

-- ask Read off the recorded abundance fitness for L6A
-- reply -0.314

-- ask Input P21T , output reported abundance fitness.
-- reply -0.235

-- ask Name the recorded abundance fitness of the item Q14T in your answer.
-- reply -0.45

-- ask Given the variant Q14K , write its reported abundance fitness.
-- reply -0.175

-- ask Entry K26C needs its abundance fitness filled in; supply it.
-- reply -0.761

-- ask # return recorded abundance fitness for entry E10K
-- reply -0.354

-- ask Dear colleague, please send me the reported abundance fitness for T7G when you can.
-- reply -0.199

-- ask Identify measured abundance fitness associated with G24P
-- reply -0.829

-- ask Please list abundance fitness recorded for the variant Q13M
-- reply -0.134

-- ask Entry T25M needs its abundance fitness filled in; supply it.
-- reply -0.517

-- ask Tell me measured abundance fitness for L1R please.
-- reply -0.262

-- ask # return recorded abundance fitness for entry L20V
-- reply -0.575

-- ask Answer with the recorded abundance fitness of L11G only.
-- reply -0.657

-- ask Report abundance fitness, nothing else, for this variant: E5V
-- reply -0.329

-- ask Identify abundance fitness associated with the variant R18N
-- reply -0.299

-- ask Give a short answer stating reported abundance fitness for T7S .
-- reply -0.071
